biological target: human SGLT1 (Homo sapiens, UniProt P13866); assay: Inhibitory activity against methyl-α-D-glucopyranoside uptake, CHO cells stably expressing human SGLT1; settings: Table 2-2; read-out: hSGLT1 IC50 value
Sequence (P13866 whole entry): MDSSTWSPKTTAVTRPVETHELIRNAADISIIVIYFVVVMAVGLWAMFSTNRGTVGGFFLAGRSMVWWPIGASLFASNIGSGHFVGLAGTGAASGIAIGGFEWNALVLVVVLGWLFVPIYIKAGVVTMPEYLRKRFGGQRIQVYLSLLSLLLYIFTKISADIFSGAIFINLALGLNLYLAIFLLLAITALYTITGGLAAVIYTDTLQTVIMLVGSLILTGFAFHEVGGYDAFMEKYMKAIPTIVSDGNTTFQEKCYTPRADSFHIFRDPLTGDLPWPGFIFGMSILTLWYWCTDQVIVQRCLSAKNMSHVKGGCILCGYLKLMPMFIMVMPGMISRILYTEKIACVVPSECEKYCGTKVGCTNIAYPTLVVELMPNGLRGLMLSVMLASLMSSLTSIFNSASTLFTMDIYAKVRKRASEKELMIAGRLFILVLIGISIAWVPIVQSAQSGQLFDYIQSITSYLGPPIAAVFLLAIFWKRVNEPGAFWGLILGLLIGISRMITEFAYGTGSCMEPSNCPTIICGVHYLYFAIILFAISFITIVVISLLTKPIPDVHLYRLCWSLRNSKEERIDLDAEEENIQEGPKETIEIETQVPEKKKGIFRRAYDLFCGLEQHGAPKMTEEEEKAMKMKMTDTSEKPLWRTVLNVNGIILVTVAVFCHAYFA
What IC50 was measured for each of the following?
Express your answer in nM, writing the number without its unit.

Notebook: CCCc1ccc(Cc2cc3c(cc2Cl)CO[C@]32O[C@H](CO)[C@@H](O)[C@H](O)[C@H]2O)cc1 , IC50 read as 1360

Notebook: CC(C)c1ccc(Cc2cc3c(cc2Cl)CO[C@]32O[C@H](CO)[C@@H](O)[C@H](O)[C@H]2O)cc1 , IC50 read as 1010

Notebook: OC[C@H]1O[C@]2(OCc3cc(Cl)c(Cc4ccc(CCF)cc4)cc32)[C@H](O)[C@@H](O)[C@@H]1O , IC50 read as 355

Notebook: OC[C@H]1O[C@]2(OCc3cc(Cl)c(Cc4ccc5ccccc5c4)cc32)[C@H](O)[C@@H](O)[C@@H]1O , IC50 read as 381

---

Molecular target: human SGLT2 (Homo sapiens, UniProt P31639)
Construct: expressed in transfected cells; host or cells: CHO-K1
Sequence (P31639 whole entry): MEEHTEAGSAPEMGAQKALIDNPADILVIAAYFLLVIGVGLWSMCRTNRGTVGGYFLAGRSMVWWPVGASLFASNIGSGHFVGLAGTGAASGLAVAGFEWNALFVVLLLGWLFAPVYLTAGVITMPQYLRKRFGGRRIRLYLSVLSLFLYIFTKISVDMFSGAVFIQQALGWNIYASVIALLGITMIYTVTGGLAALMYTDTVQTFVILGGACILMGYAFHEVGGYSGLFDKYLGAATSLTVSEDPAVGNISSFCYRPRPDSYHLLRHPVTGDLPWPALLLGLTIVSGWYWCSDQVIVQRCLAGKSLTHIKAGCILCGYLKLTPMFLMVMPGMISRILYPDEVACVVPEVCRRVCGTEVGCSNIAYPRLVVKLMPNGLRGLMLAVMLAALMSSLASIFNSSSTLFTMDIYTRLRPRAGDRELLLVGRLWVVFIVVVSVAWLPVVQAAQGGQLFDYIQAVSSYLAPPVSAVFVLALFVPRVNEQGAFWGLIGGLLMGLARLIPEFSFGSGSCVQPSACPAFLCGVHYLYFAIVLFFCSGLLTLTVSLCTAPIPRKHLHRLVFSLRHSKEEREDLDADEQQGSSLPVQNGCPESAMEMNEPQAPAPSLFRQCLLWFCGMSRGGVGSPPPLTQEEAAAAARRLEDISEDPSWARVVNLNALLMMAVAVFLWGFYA
Assay: Inhibitory activity against methyl-α-D-glucopyranoside uptake, CHO cells stably expressing human SGLT2
Type: cell-based
Details: inhibition of SGLT2, Table 2-1; read-out: IC50 value
Excerpt: Evaluation of inhibitory activity against methyl-α-D-glucopyranoside uptake of human Na^+-glucose cotransporter (SGLT1 and SGLT2) 2) Construction of Human SGLT2 Expression Vector Human SGLT2 cDNA was amplified by PCR with a cDNA library derived from human kidney (Clontech) as a template, synthetic DNA primers and KOD+ DNA Polymerase. The amplified cDNA was inserted into pcRII-Topo vector by using a Topo TA Cloning Dual Promoter kit. […]
What pIC50 was measured for each of the following?
Just so you know, pIC50 here is -log10 of the concentration in molar units; reply with that number alone.

Item: Cc1ccc(Cc2cc3c(cc2F)CO[C@]32O[C@H](CO)[C@@H](O)[C@H](O)[C@H]2O)cc1 | System: human SGLT2 (Homo sapiens, UniProt P31639) | pIC50: 8.77

Item: OC[C@H]1O[C@]2(OCc3cc(Cl)c(Cc4ccc(CC(F)F)cc4)cc32)[C@H](O)[C@@H](O)[C@@H]1O | System: human SGLT2 (Homo sapiens, UniProt P31639) | pIC50: 8.92

Item: OC[C@H]1O[C@]2(OCc3cc(Cl)c(Cc4ccc(CCF)cc4)cc32)[C@H](O)[C@@H](O)[C@@H]1O | System: human SGLT2 (Homo sapiens, UniProt P31639) | pIC50: 8.96

Item: COc1ccc(Cc2cc3c(cc2F)CO[C@]32O[C@H](CO)[C@@H](O)[C@H](O)[C@H]2O)cc1 | System: human SGLT2 (Homo sapiens, UniProt P31639) | pIC50: 8.66

Item: COc1ccc(Cc2cc3c(cc2Cl)CO[C@]32O[C@H](CO)[C@@H](O)[C@H](O)[C@H]2O)cc1 | System: human SGLT2 (Homo sapiens, UniProt P31639) | pIC50: 9.00

Item: OC[C@H]1O[C@]2(OCc3cc(Cl)c(Cc4ccc(C(F)(F)F)cc4)cc32)[C@H](O)[C@@H](O)[C@@H]1O | System: human SGLT2 (Homo sapiens, UniProt P31639) | pIC50: 8.77

Item: C#Cc1cc2c(cc1Cc1ccc(CC)cc1)[C@]1(OC2)O[C@H](CO)[C@@H](O)[C@H](O)[C@H]1O | System: human SGLT2 (Homo sapiens, UniProt P31639) | pIC50: 8.68
